Provide the recorded Kd for the entries that follow.
# Assay System: HLA-B*15:01
# Procedure Details: IEDB peptide-MHC binding, purified MHC/competitive/fluorescence; filed as Kd, often an IC50 or EC50 that approximates it; bounds were set here for any values at or beyond the usual limits of such assays
# Condition Summary: source organism: Escherichia coli O139:H28 str. E24377A

Lookup: Can you look up Kd on HLA-B*15:01 for LAAEEILTL ?
Found: ≥ 20 µM

Lookup: Can you look up Kd on HLA-B*15:01 for EIVAEYITY ?
Found: 0.156 µM

Lookup: Can you look up Kd on HLA-B*15:01 for YVVWLMFSL ?
Found: ≥ 20 µM

Lookup: Can you look up Kd on HLA-B*15:01 for SIPFGLMSA ?
Found: ≥ 20 µM
